Recorded values, source patent US6699887B2.

Entries and their measured pIC50 follow.
- tested.target: HIV-1 RT (Human immunodeficiency virus type 1 group M subtype B, UniProt P04585)
- protocol.notes: HIV-1 Reverse Transcriptase Assay: Inhibitor IC50 Determination
- Type: biochemical
- particulars: purified recombinant enzyme, poly(rA)/oligo(dT)16 template-primer, 37° C. 30 min
pIC50: −log10 of the molar value.
readout.type: pIC50

structure.string	tested.target	readout.type	test.result
Cc1nn(C(C)C)c(Sc2cc(Cl)cc(Cl)c2)c1Cc1ccnc(Cl)c1	HIV-1 RT (Human immunodeficiency virus type 1 group M subtype B, UniProt P04585)	pIC50	6.96
Cc1cccc(Sc2c(Cc3ccncc3Cl)c(C)nn2C(C)C)c1	HIV-1 RT (Human immunodeficiency virus type 1 group M subtype B, UniProt P04585)	pIC50	5.97
Cc1nn(C(C)C)c(Sc2cc(Cl)cc(Cl)c2)c1Cc1ccncc1	HIV-1 RT (Human immunodeficiency virus type 1 group M subtype B, UniProt P04585)	pIC50	7.12
CCn1nc(C)c(Cc2ccncc2)c1Sc1cc(Cl)cc(Cl)c1	HIV-1 RT (Human immunodeficiency virus type 1 group M subtype B, UniProt P04585)	pIC50	7.08
Cc1nn(C(C)C)c(Sc2cc(Cl)cc(Cl)c2)c1Cc1ccccc1	HIV-1 RT (Human immunodeficiency virus type 1 group M subtype B, UniProt P04585)	pIC50	6.57
Cc1nn(C(C)C)c(Sc2cc(Cl)cc(Cl)c2)c1Cc1ccncc1F	HIV-1 RT (Human immunodeficiency virus type 1 group M subtype B, UniProt P04585)	pIC50	6.43
Cc1nn(C(C)C)c(Sc2cc(Cl)cc(Cl)c2)c1Cc1ccncc1Cl	HIV-1 RT (Human immunodeficiency virus type 1 group M subtype B, UniProt P04585)	pIC50	6.75
CCn1nc(C)c(Cc2cncc(Br)c2)c1Sc1cc(Cl)cc(Cl)c1	HIV-1 RT (Human immunodeficiency virus type 1 group M subtype B, UniProt P04585)	pIC50	6.40
Cc1cc(C)cc(Sc2c(Cc3ccncc3F)c(C)nn2C(C)C)c1	HIV-1 RT (Human immunodeficiency virus type 1 group M subtype B, UniProt P04585)	pIC50	7.05
Cc1nn(C(C)C)c(Sc2cc(Cl)cc(Cl)c2)c1Cc1ccncn1	HIV-1 RT (Human immunodeficiency virus type 1 group M subtype B, UniProt P04585)	pIC50	6.34
Cc1nn(C(C)C)c(Sc2cc(Cl)cc(Cl)c2)c1COCc1ccncc1	HIV-1 RT (Human immunodeficiency virus type 1 group M subtype B, UniProt P04585)	pIC50	6.95
Cc1nn(C(C)C)c(Sc2cc(Cl)cc(Cl)c2)c1COc1cncc(Cl)c1	HIV-1 RT (Human immunodeficiency virus type 1 group M subtype B, UniProt P04585)	pIC50	6.19
Cc1nn(C(C)C)c(Sc2cc(Cl)cc(Cl)c2)c1COc1ccncc1	HIV-1 RT (Human immunodeficiency virus type 1 group M subtype B, UniProt P04585)	pIC50	6.60
Cc1nn(-c2ccccc2)c(Sc2cc(Cl)cc(Cl)c2)c1CCc1ccccc1	HIV-1 RT (Human immunodeficiency virus type 1 group M subtype B, UniProt P04585)	pIC50	5.47
